Source: patent US10220112B2

- System: human erythrocytes
- experiment summary: Lytic activity against human erythrocytes
- Format: cell-based
- condition: Table 2; 500 μM
Starred links: 1 amine or outer side, 2 acyl side, 3 side chain; linkers in the order of their positions; H or OH if unused. Non-standard residues stand in square brackets, D forms with d. Residues, ends and D or L forms follow the SMILES beside them. azaβ3(1Nal) = O=C(CN(Cc1cccc2ccccc12)N[*:1])[*:2]; X2 = O=C(CN(Cc1ccc2ccccc2c1)N[*:1])[*:2]; X1 = O=C(CN(CC(O)CO)N[*:1])[*:2]
Consider the following compounds; for each one, report its Human cells % hemolysis at 500 μM.
One number for each entry, in %.

Here is how some compounds turned out for Human cells % hemolysis at 500 μM.
- compound: "CC(C)[C@@H]1NC(=O)[C@H](CCCNC(=N)N)NC(=O)[C@H](CCCNC(=N)N)NC(=O)CN(Cc2cccc3ccccc23)NC(=O)[C@H](Cc2ccccc2)NC(=O)CN(Cc2cccc3ccccc23)NC(=O)[C@H](CCCCN)NC1=O [Pep19, (Ψ1Nal-F-Ψ1Nal-RRVK)] (cyclo([azaβ3(1Nal)]F[azaβ3(1Nal)]RRVK))"
  Human cells % hemolysis at 500 μM (%): 7
- compound: "COc1cccc(OC)c1C(=O)N[C@@H]1C(=O)N2[C@@H]1SC(C)(C)[C@@H]2C(=O)O [Meticillin, reference compound]"
  Human cells % hemolysis at 500 μM (%): 0.12

Provide each entry's Human cells % hemolysis at 500 μM from the list below.
1. CN[C@H](CC(C)C)C(=O)N[C@H]1C(=O)N[C@@H](CC(N)=O)C(=O)N[C@H]2C(=O)N[C@H]3C(=O)N[C@H](C(=O)N[C@H](C(=O)O)c4cc(O)cc(O)c4-c4cc3ccc4O)[C@H](O)c3ccc(c(Cl)c3)Oc3cc2cc(c3O[C@@H]2O[C@H](CO)[C@@H](O)[C@H](O)[C@H]2O[C@H]2C[C@](C)(N)[C@H](O)[C@H](C)O2)Oc2ccc(cc2Cl)[C@H]1O [Vancomycin, reference compound]
2. N=C(N)NCCC[C@@H]1NC(=O)CN(Cc2ccc3ccccc3c2)NC(=O)[C@H](Cc2ccccc2)NC(=O)[C@H](Cc2ccccc2)NC(=O)[C@H](CCCCN)NC(=O)CN(CC(O)CO)NC(=O)[C@H](CCCNC(=N)N)NC1=O (some centres unmarked) [Pep15, (FFΨ2-Nal-RR-ΨHyt-K)] (cyclo(FF[X2]RR[X1]K))
3. N=C(N)NCCC[C@@H]1NC(=O)[C@H](Cc2c[nH]c3ccccc23)NC(=O)[C@H](Cc2ccccc2)NC(=O)CN(Cc2cccc3ccccc23)NC(=O)[C@H](CCCCN)NC(=O)CN(CC(O)CO)NC(=O)[C@H](CCCNC(=N)N)NC1=O (some centres unmarked) [Pep12, (Ψ1Nal-FWRR-ΨHyt-K)] (cyclo([azaβ3(1Nal)]FWRR[X1]K))

1: 0.15; 2: 3; 3: 98
